# SYSTEM_NAME: AEA-DA lipid probe targets in Neuro2a cells (Mus musculus, UniProt Q9D8N0)
# Sequence (Q9D8N0 whole entry): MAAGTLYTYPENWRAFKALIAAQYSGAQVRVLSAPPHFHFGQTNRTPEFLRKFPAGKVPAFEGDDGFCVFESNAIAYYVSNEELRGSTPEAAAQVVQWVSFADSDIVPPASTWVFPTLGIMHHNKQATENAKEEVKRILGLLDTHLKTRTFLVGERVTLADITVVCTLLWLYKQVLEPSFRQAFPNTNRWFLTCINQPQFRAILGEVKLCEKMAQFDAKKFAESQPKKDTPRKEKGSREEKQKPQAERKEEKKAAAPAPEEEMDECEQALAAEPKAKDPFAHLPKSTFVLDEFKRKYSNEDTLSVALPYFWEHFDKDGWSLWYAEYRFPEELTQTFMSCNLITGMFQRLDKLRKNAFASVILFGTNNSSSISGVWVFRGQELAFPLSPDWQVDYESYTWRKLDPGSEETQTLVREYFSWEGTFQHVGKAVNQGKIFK
# CONDITION_SUMMARY: competitor 25 μM
I'd appreciate it if you could supply SILAC ratio Eef1g values for the items below.
Write the value as a bare number.

Q) Give the measured SILAC ratio Eef1g for CN1CCN(C(=O)c2c(-c3ccccc3)c3cc([N+](=O)[O-])ccc3n2C)CC1 [KML110]
A) 1.4

Q) Give the measured SILAC ratio Eef1g for O=C(/C=C/c1cccnc1)NCCCCC1CCN(C(=O)c2ccccc2)CC1 [FK-866, reference compound]
A) 1.5

Q) Give the measured SILAC ratio Eef1g for C=CCN(C)CCCCCCOc1ccc(C(=O)c2ccc(Br)cc2)c(F)c1 [Ro 48-8071, reference compound]
A) 0.9

Q) Give the measured SILAC ratio Eef1g for CN1CCN(C(=O)c2[nH]c3ccc([N+](=O)[O-])cc3c2-c2ccccc2)CC1 [MJN228]
A) 1.1
